Assay: Phase I study CXR1002-001: plasma pharmacokinetics (LC-MS/MS)
Type: in vivo, human
Details: human, plasma, oral, 100 mg, Patient 007 Dose 100 mg; 360 hr (Day 16); read-out: Concentration

>  <structureString>
O=C(O)C(F)(F)C(F)(F)C(F)(F)C(F)(F)C(F)(F)C(F)(F)C(F)(F)F

>  <concentration at 360 hr>
32 µM

$$$$

====

Assay: Phase I study CXR1002-001: plasma pharmacokinetics (LC-MS/MS)
Type: in vivo, human
Details: human, plasma, oral, 450 mg, Patient 015 Dose 450 mg; 675 hr; read-out: Concentration

>  <structureString>
O=C(O)C(F)(F)C(F)(F)C(F)(F)C(F)(F)C(F)(F)C(F)(F)C(F)(F)F

>  <concentration at 675 h, µM>
633

$$$$
